- target.desc: T1, human AXL (full length) (human, UniProt P30530 26-894)
- T1 construct: also called TH1021-AXL; TH1021-hAXL
- method: FMAT screening assay, HEK-293F cells transiently expressing human AXL

# binder, result.units, EC50
rows = [
    ("IgG1-AXL-726 (antibody, V domains shown) VH: QVQLQQWGAGLLKPSETLSLTCAIDGGSFSGYYWSWIRQPPGKGLEWIGEISHSGRTNYNPSLKSRVTISIDTSKNQFSLKLSSVAAADTAVYYCARFITMIRGAIITHFDYWGQGALVTVSS VL: DIQMTQSPSSLSASVGDRVTITCRASQGISSWLAWYQQKPEKAPKSLIYAASSLQSGVPSRFSGSGSGTDFTLTISSLQPEDFATYYCQQYHSYPYTFGQGTKLEIK", "µg/mL", 0.0471),
    ("IgG1-AXL-140 (antibody, V domains shown) VH: EVQLLESGGGLVQPGGSLRLSCAASGFTFSSYAMTWVRQAPGKGLEWVSAISISGASTFYADSVKGRFTISRDNSKNTLSLQMNSLRAEDTAVYFCRGYSGYVYDAFDIWGQGTMVTVSS VL: DIQMTQSPSSLSASVGDRVTITCRASQGISNWLAWYQQKPEKAPKSLIYAASSLQSGVPSRFSGSGSGTDFTLTISSLQPEDFATYYCQQYNSYPLTFGGGTKVEIK", "µg/mL", 0.0026),
    ("IgG1-AXL-613-08 (antibody, V domains shown) VH: QVQLVQSGAEVKKPGSSVKVSCKASGGTFSSYAINWMRQAPGQGLEWMGRIIPIFGIVNYAQKFQGRVTLTADKSTSTAYMELSSLRSEDTAVYYCARRGNYYGSGSPDVFDIWGQGTMVTVSS VL: EIVLTQSPATLSLSPGERATLSCRASQSVSSYLAWYQQKPGQAPRLLIYDASNRATGIPARFSGSGSGTDFTLTISSLEPEDFAVYYCQQRSNWLTFGGGTKVEIK", "µg/mL", 0.0242),
]

Cited source: patent US20180326084A1
